Values were extracted from the supplement of paper PMC10065799.

Target: FGFR3 (UniProt P22607)
Sequence (P22607 whole entry, looked up): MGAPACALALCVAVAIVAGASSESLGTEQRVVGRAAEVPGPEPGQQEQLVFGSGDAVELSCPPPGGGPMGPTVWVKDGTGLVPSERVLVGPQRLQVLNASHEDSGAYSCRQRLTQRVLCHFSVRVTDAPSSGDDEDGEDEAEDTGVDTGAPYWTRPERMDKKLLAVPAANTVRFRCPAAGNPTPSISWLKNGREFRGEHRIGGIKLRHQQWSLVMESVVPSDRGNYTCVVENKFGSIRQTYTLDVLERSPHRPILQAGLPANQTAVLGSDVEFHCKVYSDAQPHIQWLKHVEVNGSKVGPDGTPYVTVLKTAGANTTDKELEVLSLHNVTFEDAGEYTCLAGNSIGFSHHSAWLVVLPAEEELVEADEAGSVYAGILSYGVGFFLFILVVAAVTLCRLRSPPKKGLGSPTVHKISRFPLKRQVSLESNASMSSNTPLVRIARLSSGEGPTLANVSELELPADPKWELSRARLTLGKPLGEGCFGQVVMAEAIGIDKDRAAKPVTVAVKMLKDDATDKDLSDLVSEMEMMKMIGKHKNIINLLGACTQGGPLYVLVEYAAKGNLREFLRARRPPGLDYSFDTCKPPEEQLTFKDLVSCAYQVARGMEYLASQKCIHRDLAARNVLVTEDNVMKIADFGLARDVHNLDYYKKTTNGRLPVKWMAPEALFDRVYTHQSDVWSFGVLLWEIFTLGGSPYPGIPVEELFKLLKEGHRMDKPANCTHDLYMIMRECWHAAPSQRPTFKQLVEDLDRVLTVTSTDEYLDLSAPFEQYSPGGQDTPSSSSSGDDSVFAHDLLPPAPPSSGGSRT
Experiment: phosphorylation enrichment, bacterial display (enrichment ratio); higher = better substrate or ligand; peptides without Tyr show the background
Readout Label: phosphorylation enrichment
Form: value (number only, do not type unit).

Documented phosphorylation enrichment of GEFFRYLAEVA [YWHAG_Y133_D129E_YF] : 0.767

According to the records, this sequence GYYDLYGGEKF [PTPN11_Y66_D61G] displays phosphorylation enrichment of 8.65

So for PEADKYRLPYA [FGG_Y300_T303P] , the logged phosphorylation enrichment turned out to be 0.552

According to the records, this sequence TGVRDYIHVVD [GALE_Y241] displays phosphorylation enrichment of 0.593

Sample GVMLLYYGRYN [ADGRD1_Y85_T82M] ; phosphorylation enrichment observed: 0.6

Further cases:
Lab note: measured phosphorylation enrichment of SEELHYFVQNH [UQCRC2_Y207] was 1.39

The reported phosphorylation enrichment of the sequence CTTIHYNYMFN [TP53_Y234_C238F] was 0.812

Documented phosphorylation enrichment of EEKKKYYDAKI [CASP5_Y103_T106A] : 0.518

phosphorylation enrichment for QWQQLYDTLNA [EIF3M_Y351] is 0.932

Entry CPFNLYAEQFS [HGD_Y40_L44F_YF] ; phosphorylation enrichment = 0.847

Summary for this sequence, STDDGCIDLQF [TMEM230_Y29_Y29C] : phosphorylation enrichment is 0.797

Entry TGGLEYIVPLM [CLCN4_Y548] , phosphorylation enrichment reported as 2.29

# phosphorylation enrichment of SLFQFYFQQKG [CHKB_Y381_R377L] = 0.833

The measured phosphorylation enrichment associated with TNFSLYLRSLE [MTM1_Y71_R69S_YF] reads 0.744

response.value for ECKLLYSRKEG [PTPN11_Y263] (field: phosphorylation enrichment) = 0.554

Just so you know, measured phosphorylation enrichment for ISIFFYAKGQP [MPZ_Y82_H81Y_YF] came out at 0.865

Quick note, phosphorylation enrichment for CWAVKYLQMVG [AVPR2_Y117_R113W] landed at 0.703

// field: phosphorylation enrichment; key: RKETFYILSCR [GUCY2C_Y681_T682I] ; value = 0.917

The measured phosphorylation enrichment associated with SLIDMYSKVLD [OPA1_Y268_E270K] reads 0.637

// phosphorylation enrichment lookup, sequence = PSARTYCFKQE [KLHDC9_Y175_YF] , result: 0.571

response.value for NKFVAYIESQG [KDM4B_Y34_YF] (field: phosphorylation enrichment) = 0.663

Reported phosphorylation enrichment ( RRGMPYGGHGD [TGM1_Y312_R315H] ) = 0.472

----------
Target: FGFR3 (UniProt P22607)
Test: phosphorylation enrichment, bacterial display (enrichment ratio); higher = better substrate or ligand; peptides without Tyr show the background
Please note: Yes applies when phosphorylation enrichment is 0.6 or greater, and No applies otherwise.

Take a look at these entries with their results.
Confirm if phosphorylation enrichment reported for the sequence PNATLYKMSSI [SERPINA7_Y40] is 0.6 or above. No

I'd appreciate it if you could say whether EMTAEYTCTRK [ACAD9_Y325_A326T] has phosphorylation enrichment at least equal to 0.6. Yes

Others:
// inclusive: phosphorylation enrichment at least 0.6? input: DTDSSYCIPTA [GAB1_Y373] Yes

Could you verify whether the entry DAVAVYDGKIS [SH2D1A_Y7_H8D] shows phosphorylation enrichment of no less than 0.6? No

// inclusive: phosphorylation enrichment at least 0.6? input: KQNSLYSFSDH [CCDC82_Y331] No

phosphorylation enrichment >= 0.6 for TKDTFYKQPVF [GBA_Y451_M455V] ? No

Would you say CTTIHCNYMCN [TP53_Y234_Y234C] shows phosphorylation enrichment at minimum 0.6? Yes

# check: phosphorylation enrichment of KHCEDYVCSFN [DSC1_Y846_YF] is greater than or equal to 0.6 Yes

----------
Target: Fyn (UniProt P06241)
Sequence (P06241 whole entry, looked up): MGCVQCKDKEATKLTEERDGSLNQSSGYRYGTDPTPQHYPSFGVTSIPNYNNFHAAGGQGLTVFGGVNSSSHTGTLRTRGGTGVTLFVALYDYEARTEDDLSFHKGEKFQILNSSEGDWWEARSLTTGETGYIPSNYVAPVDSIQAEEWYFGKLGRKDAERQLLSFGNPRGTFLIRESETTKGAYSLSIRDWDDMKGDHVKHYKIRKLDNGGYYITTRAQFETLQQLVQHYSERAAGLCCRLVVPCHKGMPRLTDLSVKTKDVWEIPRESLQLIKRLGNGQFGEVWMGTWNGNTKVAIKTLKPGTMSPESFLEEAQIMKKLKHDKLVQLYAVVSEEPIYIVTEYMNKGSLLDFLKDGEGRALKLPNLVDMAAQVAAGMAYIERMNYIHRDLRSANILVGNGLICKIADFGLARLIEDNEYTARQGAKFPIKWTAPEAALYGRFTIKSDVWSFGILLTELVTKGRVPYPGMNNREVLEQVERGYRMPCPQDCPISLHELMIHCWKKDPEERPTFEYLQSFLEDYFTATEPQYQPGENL
Test: phosphorylation enrichment, bacterial display (enrichment ratio); higher = better substrate or ligand; peptides without Tyr show the background
Readout Label: phosphorylation enrichment

Measured phosphorylation enrichment, PTDCVYVMPTV [MYO7A_Y1668_S1666C] : 8.41

The sequence RVDRDYVLKSA [HTATIP2_Y111] showed phosphorylation enrichment equal to 0.47

---
KKYPDYIQSAM [SGMS2_Y59_I62S] has a reported phosphorylation enrichment of 0.443

Kindly note the recorded phosphorylation enrichment for LNPFIYSLRNR [OR1A1_Y288] , which is 0.657

# phosphorylation enrichment of FKEQGYHRLPS [RIN1_Y681_P686S_YF] = 0.305

For record ADEEFYEIIAA [FEStide_F_2014] the listed phosphorylation enrichment is 2.42

Notebook: VLVSQYEKLDA [AMZ2_Y26_N30D] , phosphorylation enrichment read as 0.489

Form: sequence = GRVLGYGAFRK [FLT4_Y853_G857R] ; phosphorylation enrichment = 0.517

# sequence RRERLYGGGGG [FUS_Y526_P525L] ; its phosphorylation enrichment = 0.535

----------
Target: c-Src SH2;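 further: peptide library displayed on the E. coli surface as eCPX fusions, selected cells deep-sequenced, score is each peptide's frequency after selection divided by its frequency in the input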
Experiment: SH2 binding enrichment of the phosphorylated peptide, bacterial display (enrichment ratio); higher = better substrate or ligand; peptides without Tyr show the background
Parameter SH2 binding enrichment: see the listing below.
Please reply with the value in numeric form only.

Form field SH2 binding enrichment for item DIPIRYSIMGV [CDH4_Y205_T208M] on c-Src SH2: 1.31

***
Value (SH2 binding enrichment, c-Src SH2) for record TYGQVYKGPHV [TNIK_Y40_R43P] = 0.579

Form field SH2 binding enrichment for item PTTKTYFPHFA [HBA1_Y43_D48A] on c-Src SH2: 0.496

// sequence RNDQVYQPLRD [CD3D_Y149] , assay c-Src SH2, SH2 binding enrichment value: 0.663

Entry LDLSYYHTSSS [EMD_Y182_P183H] , c-Src SH2 data, SH2 binding enrichment value: 1.19

Record for TVVVPYEPPEV [TP53_Y220_S215T] under target or system c-Src SH2: SH2 binding enrichment reported as 1.08

----------
Molecular target: FGFR1 (UniProt P11362)
Sequence (P11362 whole entry, looked up): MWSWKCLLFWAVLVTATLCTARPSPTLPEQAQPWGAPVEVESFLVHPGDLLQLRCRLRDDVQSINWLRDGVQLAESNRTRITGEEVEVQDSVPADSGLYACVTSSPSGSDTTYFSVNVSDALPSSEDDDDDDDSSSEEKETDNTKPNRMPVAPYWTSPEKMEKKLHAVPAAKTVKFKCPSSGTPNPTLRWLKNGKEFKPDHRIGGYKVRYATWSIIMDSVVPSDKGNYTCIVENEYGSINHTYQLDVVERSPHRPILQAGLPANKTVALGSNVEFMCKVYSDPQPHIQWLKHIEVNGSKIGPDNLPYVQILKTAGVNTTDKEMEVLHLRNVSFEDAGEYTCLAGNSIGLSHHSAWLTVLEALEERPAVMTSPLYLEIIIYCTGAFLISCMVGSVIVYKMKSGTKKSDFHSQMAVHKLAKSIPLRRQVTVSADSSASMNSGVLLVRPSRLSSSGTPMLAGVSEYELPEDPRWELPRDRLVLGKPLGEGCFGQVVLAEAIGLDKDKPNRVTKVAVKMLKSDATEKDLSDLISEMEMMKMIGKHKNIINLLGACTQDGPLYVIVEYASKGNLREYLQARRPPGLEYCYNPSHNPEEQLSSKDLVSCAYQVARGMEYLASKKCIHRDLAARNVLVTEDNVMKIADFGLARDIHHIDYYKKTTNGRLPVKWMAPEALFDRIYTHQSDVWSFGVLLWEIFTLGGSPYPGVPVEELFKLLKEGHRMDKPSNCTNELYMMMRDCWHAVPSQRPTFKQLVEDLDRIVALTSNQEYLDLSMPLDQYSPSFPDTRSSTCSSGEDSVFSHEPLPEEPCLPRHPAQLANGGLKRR
Test: phosphorylation enrichment, bacterial display (enrichment ratio); higher = better substrate or ligand; peptides without Tyr show the background
Readout Label: phosphorylation enrichment
Write no unit; give the number alone.

Some sequences with recorded phosphorylation enrichment:
// field: phosphorylation enrichment; key: LTTEVYFPSIK [C5orf64_Y60_A57T] ; value = 0.775

Reported phosphorylation enrichment for TGVRDYIHVVD [GALE_Y241] was 0.587

Value of measured phosphorylation enrichment for the entry KDPPDYKFQPR [SOX9_Y172_H169P_YF] : 0.427

In the following, a different sequence is considered.
The measured phosphorylation enrichment associated with DFPMGYPSYLA [TBCK_Y153_I151M] reads 0.412

----------
Molecular target: Fes (UniProt P07332)
Sequence (P07332 whole entry, looked up): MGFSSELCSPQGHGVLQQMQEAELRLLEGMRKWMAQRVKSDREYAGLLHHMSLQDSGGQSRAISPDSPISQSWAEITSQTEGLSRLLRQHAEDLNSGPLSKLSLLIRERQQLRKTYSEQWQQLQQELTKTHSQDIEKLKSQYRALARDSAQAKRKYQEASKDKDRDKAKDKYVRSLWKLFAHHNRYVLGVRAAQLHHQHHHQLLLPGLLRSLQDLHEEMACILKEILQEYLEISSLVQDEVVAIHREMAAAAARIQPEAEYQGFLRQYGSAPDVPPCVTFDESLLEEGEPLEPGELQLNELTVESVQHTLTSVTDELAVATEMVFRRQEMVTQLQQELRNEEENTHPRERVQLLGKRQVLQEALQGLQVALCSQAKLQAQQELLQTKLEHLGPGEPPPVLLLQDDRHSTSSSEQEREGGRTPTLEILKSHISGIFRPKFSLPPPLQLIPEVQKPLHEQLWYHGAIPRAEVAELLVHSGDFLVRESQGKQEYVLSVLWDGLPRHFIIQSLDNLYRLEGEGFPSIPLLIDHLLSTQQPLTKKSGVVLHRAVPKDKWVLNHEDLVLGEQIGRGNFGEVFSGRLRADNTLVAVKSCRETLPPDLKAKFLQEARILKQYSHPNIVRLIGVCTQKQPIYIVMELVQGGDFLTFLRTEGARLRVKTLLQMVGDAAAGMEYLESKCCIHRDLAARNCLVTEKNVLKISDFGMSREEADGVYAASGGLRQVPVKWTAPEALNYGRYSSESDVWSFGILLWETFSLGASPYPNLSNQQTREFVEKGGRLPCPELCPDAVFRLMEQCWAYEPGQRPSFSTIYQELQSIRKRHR
Assay: phosphorylation enrichment, bacterial display (enrichment ratio); higher = better substrate or ligand; peptides without Tyr show the background
Each entry below carries its reported phosphorylation enrichment.
// return just the number, without any unit appended

Below, 3 sequences whose answers are already recorded.
Memo: KLRMESLSLMH [NCKIPSD_Y660_Y660S] , reported phosphorylation enrichment: 0.782

Form field phosphorylation enrichment, entry YALAEYTEVKT [ALDH1A3_Y497] : 0.901

Measured phosphorylation enrichment of QLQTNYPSSDN [MAX_Y115] : 1.14

---
Reported phosphorylation enrichment for FEEDSYVKRSQ [RET_Y905_YF] was 1.11

The sequence identified as HEVHIYENSGA [ARPC1B_Y35_K37N] registered its phosphorylation enrichment at 2.27

Sure, the documented phosphorylation enrichment for MGSYNYLGFPR [SPTLC2_Y178_A182P] is 0.748

----------
Molecular target: Fes (UniProt P07332)
Experiment: phosphorylation enrichment, bacterial display (enrichment ratio); higher = better substrate or ligand; peptides without Tyr show the background
Listed here are sequences together with their documented phosphorylation enrichment.
// keep it numeric: no unit symbol after the value

Note to self: phosphorylation enrichment recorded for AHPIIYDIIEA [PYKtide_D_2014] was 2.13

---
Summary for this sequence, GFSRHYEDGFP [CTNND1_Y217_YF] : phosphorylation enrichment is 0.739

ALVFLSFCIIF [SIGLEC12_Y494_Y494S] has a reported phosphorylation enrichment of 0.865

Value of phosphorylation enrichment reported for the sequence DRPSEYAARQL [ANXA13_Y90] is 0.655

----------
System: Fer (mouse)
Test: phosphorylation enrichment, bacterial display (enrichment ratio); higher = better substrate or ligand; peptides without Tyr show the background
# if value of phosphorylation enrichment reaches 0.5, tag condition met; if it stays below, tag condition not met

Please check the record HNGVSYYINLC [IGF2R_Y2024] and state if its phosphorylation enrichment is at or above 0.5. condition met

Dear colleague, could you confirm whether TFGVAYRAKDK [CDK11B_Y453_V452A_YF] has phosphorylation enrichment at or above 0.5? condition not met

Could you please find out whether ELAKYYKLHHI [AK7_Y391_N389K] has phosphorylation enrichment that meets 0.5 or exceeds it? condition not met

Does the sequence PPNSPYMGSSP [KCNT1_Y740_I741M] have recorded phosphorylation enrichment that is 0.5 or more? condition met

Continuing:
Test whether the sequence CCNHPYRINGA [CHD7_Y1256_L1257R] records phosphorylation enrichment of 0.5 or higher. condition not met

Evaluate IKKLIYVHLVI [JAGN1_Y42] : phosphorylation enrichment at minimum 0.5? condition met

# check: phosphorylation enrichment of TLQSMYGCDLG [HLA-B_Y123_V127L] is greater than or equal to 0.5 condition met

Could you please find out whether SIKDKYLTALF [KCNH2_Y611_V612L_YF] has phosphorylation enrichment that meets 0.5 or exceeds it? condition not met

Confirm if phosphorylation enrichment reported for the sequence FQGGTYSKACT [FGG_Y380_S384C_YF] is 0.5 or above. condition not met
